assay: small molecules boosting NK-mediated OVCAR3 lysis – imaging, primary NK cells, calcein-AM imaging, primary screen (AID 1508625); settings: OVCAR3 lysis by primary NK cells, at 5 µM; measured here: robust Z-score, single-point normalisation;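 note: compound given to NK cells 16 h before adding targets at 1.5 to 1 ratio; more negative robust z means stronger NK killing of tumor cells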
Would you kindly list z-score for each of these compounds?
Number, no unit, nothing else.

[Q] GET /values?readout=z-score&item= COc1ccc(C=NNC(=O)c2cc(C34CC5CC(CC(C5)C3)C4)[nH]n2)cc1O
[A] 0.0321

[Q] What do you get for COc1ccc(-c2nocc2C(N)=O)cc1OC ?
[A] -1.63

[Q] What do you get for CCOc1ccc(-n2c(=O)c3c(C)c(C)sc3n(CC(=O)N3CC(C)CC(C)C3)c2=O)cc1 (stereo not given) ?
[A] -1.25

[Q] What do you get for O=C(O)C1C2C=CC(O2)C1C(=O)N1CCC(Cc2ccccc2)CC1 (stereo not given) ?
[A] -1.34

[Q] What do you get for CC(=O)Nc1ccc(S(=O)(=O)NCc2ccc(C(=O)O)cc2)cc1 ?
[A] -1.58

[Q] What do you get for COc1ccc(-c2ccc3c(N)c(C(=O)NCCc4ccc(Cl)cc4)sc3n2)cc1 ?
[A] -0.492

[Q] What do you get for O=C1OC(c2cccc(Cl)c2)=NC1=Cc1ccc(F)cc1 ?
[A] -1.9

[Q] What do you get for O=C1C(=O)N(CCCN2CCOCC2)C(c2ccco2)C1=C(O)c1ccc(F)cc1 (stereo not given) ?
[A] -1.86

[Q] What do you get for CC1=C(C(=O)Nc2cccc(Cl)c2)C(c2cccc(Cl)c2)NC(=O)N1 (stereo not given) ?
[A] -0.84

[Q] What do you get for Cc1[nH]c2ccc(-c3n[nH]c(=S)n3C)cc2c1C ?
[A] -0.278

* * *

test: small molecules boosting NK-mediated OVCAR3 lysis – imaging, primary NK cells, calcein-AM imaging, primary screen (AID 1508625); conditions: OVCAR3 lysis by primary NK cells, at 5 µM; measured here: robust Z-score, single-point normalisation;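 note: compound given to NK cells 16 h before adding targets at 1.5 to 1 ratio; more negative robust z means stronger NK killing of tumor cells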
Would you kindly list z-score for each of these compounds?
Number, no unit, nothing else.

[Q] GET /values?readout=z-score&item= Cc1ccc(-c2cc(C(=O)NN=Cc3cccnc3)[nH]n2)cc1
[A] -1.54

[Q] What do you get for Cc1ccc(-c2cc(C(=O)O)c3cc(Cl)ccc3n2)cc1C ?
[A] -1.47

[Q] What do you get for O=[N+]([O-])c1ccc(N2CCCCC2)cc1NCCc1ccccc1 ?
[A] -0.86

[Q] What do you get for Cc1ccc(C(=O)Nc2ccc(NC(=O)c3ccc(C(C)(C)C)cc3)cc2)cc1[N+](=O)[O-] ?
[A] -0.888

[Q] What do you get for Cc1c(C(=O)Oc2cccc3ccccc23)cccc1[N+](=O)[O-] ?
[A] -2.77

[Q] What do you get for CC(Oc1cccc(Cl)c1)C(=O)ON=C(N)c1ccncc1 (stereo not given) ?
[A] 0.235

[Q] What do you get for Cc1c(C(=O)OC(C)C)sc(NC(=O)c2cc3ccccc3c(=O)o2)c1C(=O)OC(C)C ?
[A] -1.65

[Q] What do you get for C=CCN1C(=O)C(=Cc2ccc(OCc3ccccc3Cl)c(OC)c2)SC1=S ?
[A] -1.98

[Q] What do you get for COc1cc(OC)cc(C(=O)N2CCN(C3CCC(C)CC3)CC2)c1 (stereo not given) ?
[A] -0.755

[Q] What do you get for COc1cc(C=Nc2ccc(Oc3ccccc3)cc2)ccc1OC(C)=O ?
[A] -1.34
